tested on: HEK293T cell line; experiment: MTT cytotoxicity assay, HEK293T; type: cell-based, human; conditions: Table S1, read-out: IC50 (concentration resulting in half of the maximal cytotoxic effect)
QUANTITY KIND: pIC50
Numbers only, as −log10 of the molar value.

CC1=C(C)CC2(CC1)NC(=S)N(c1ccccc1Cl)C2=O (racemic)    5.51

// below: pIC50 requested for another molecule
What does the data say about its pIC50? Entry: CC1=C(C)CC2(CC1)NC(=S)N(c1c(C)cccc1C)C2=O (racemic)
5.85

====

test system: MCF7 cell line; test: MTT cytotoxicity assay, MCF7; type: cell-based, human; conditions: MCF7, MTT, Table S1; read-out: IC50 (concentration resulting in half of the maximal cytotoxic effect)
QUANTITY KIND: IC50 (nM)
One number for each entry, in nM.

CC1=C(C)CC2(CC1)NC(=S)N(c1ccccc1Cl)C2=O (racemic)    1500

Identify the measured IC50 of CC1=C(C)CC2(CC1)NC(=S)N(c1c(C)cccc1C)C2=O (racemic) for MCF7 cell line.
900
